experiment: refractive index (Na D-line) (dimensionless); φn = volume fraction of the nth substance listed; conditions: 323.15 K; 101 kPa; Liquid; Standard Abbe refractometry; φ2 = 0
The entries below come with measured refractive index values attached.
Give the value as a plain number.

Use these answered entries as a reference point.
MOLECULE | READOUT | VAL
CO [methanol] + CCCC[n+]1ccc(C)cc1.F[B-](F)(F)F | refractive index | 1.3167
CO [methanol] + CCCC[n+]1ccccc1.F[B-](F)(F)F | refractive index | 1.3167
CCO [ethanol] + CCCC[n+]1ccc(C)cc1.F[B-](F)(F)F | refractive index | 1.34837
CCO [ethanol] + CCCC[n+]1ccccc1.F[B-](F)(F)F | refractive index | 1.34837
CCO [ethanol] + CCCC[n+]1cccc(C)c1.F[B-](F)(F)F | refractive index | 1.34837

Kindly review the next molecule as well.
Output measured refractive index for this item: CO [methanol] + CCCC[n+]1cccc(C)c1.F[B-](F)(F)F
1.3167

Data provenance: the NIST ThermoML archive (doi:10.1016/j.tca.2013.08.016)
